# TARGET OR SYSTEM: Bcl-2-like protein 10 (Homo sapiens) (UniProt Q9HD36)
# Sequence (Q9HD36 whole entry, looked up): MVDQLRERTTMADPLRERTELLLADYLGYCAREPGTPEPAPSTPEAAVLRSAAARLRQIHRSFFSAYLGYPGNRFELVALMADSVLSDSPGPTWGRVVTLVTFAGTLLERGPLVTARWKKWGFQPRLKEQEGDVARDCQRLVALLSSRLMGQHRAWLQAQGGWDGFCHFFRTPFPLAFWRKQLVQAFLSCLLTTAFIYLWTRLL
# PROCEDURE SUMMARY: TR3 peptide-Bcl-B binding displacers, biochemical primary FP assay, phenotype converters (AID 1240);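 note: 0% = Bcl-B with tracer peptide and DMSO and 100% = tracer peptide lacking Bcl-B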
# EXPERIMENTAL CONDITIONS: GST-Bcl-B / FITC-TR3 peptide fluorescence polarization; stronger effect = higher value; compound at 3.75 mg/L
In all, about 50,000 compounds went through this assay and about 800 (1.6%) showed an effect of 50% or more. For the sample, strong results were picked, then their nearest neighbours and some compounds at random.
Tick 1 (yes) if displacement is 10% or greater. Tick 0 (no) if displacement is less than 10%.

[
  {
    "SMI": "Cc1ccc2nc(-c3ccc(O)cc3)sc2c1",
    "TARGET OR SYSTEM": "Bcl-2-like protein 10 (Homo sapiens) (UniProt Q9HD36)",
    "CLASS NAME": "1 (yes)"
  },
  {
    "SMI": "CN(c1ccccc1)c1ccc(C=C2C(=O)NC(=O)NC2=O)cc1",
    "TARGET OR SYSTEM": "Bcl-2-like protein 10 (Homo sapiens) (UniProt Q9HD36)",
    "CLASS NAME": "1 (yes)"
  },
  {
    "SMI": "Cc1ccc2nc(-c3ccc(NC(=O)c4ccccc4-c4ccccc4C(=O)O)cc3)sc2c1",
    "TARGET OR SYSTEM": "Bcl-2-like protein 10 (Homo sapiens) (UniProt Q9HD36)",
    "CLASS NAME": "0 (no)"
  },
  {
    "SMI": "Cc1cccc(-c2cc(NC(=O)c3ccc(Br)cc3)n[nH]2)c1",
    "TARGET OR SYSTEM": "Bcl-2-like protein 10 (Homo sapiens) (UniProt Q9HD36)",
    "CLASS NAME": "0 (no)"
  },
  {
    "SMI": "Cc1ccc(NC(=O)/C(=C/c2ccccc2)c2ccccc2)cc1C",
    "TARGET OR SYSTEM": "Bcl-2-like protein 10 (Homo sapiens) (UniProt Q9HD36)",
    "CLASS NAME": "1 (yes)"
  }
]

====

# TARGET OR SYSTEM: Bcl-2-like protein 10 (Homo sapiens) (UniProt Q9HD36)
# PROCEDURE SUMMARY: TR3 peptide-Bcl-B binding displacers, biochemical primary FP assay, phenotype converters (AID 1240);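 note: 0% = Bcl-B with tracer peptide and DMSO and 100% = tracer peptide lacking Bcl-B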
# EXPERIMENTAL CONDITIONS: GST-Bcl-B / FITC-TR3 peptide fluorescence polarization; stronger effect = higher value; compound at 3.75 mg/L
Hit rate of the full screen: of about 50,000 compounds, about 800 (1.6%) showed an effect of 50% or more. Shown is part of a subset that was picked to be rich in strong results.

[
  {
    "COMPOUND": "NC1=NC(=O)/C(=C/c2ccc(-c3ccc([N+](=O)[O-])cc3Br)o2)S1",
    "displacement (%)": -5.3
  },
  {
    "COMPOUND": "O=C1/C(=C/Nc2ccccc2NS(=O)(=O)c2ccc([N+](=O)[O-])cc2)CCc2ccccc21",
    "displacement (%)": 8.1
  },
  {
    "COMPOUND": "Cn1c(=O)c(-c2ccccc2N)nc2cc3ccccc3cc21",
    "displacement (%)": 33.6
  },
  {
    "COMPOUND": "O=[N+]([O-])c1ccc(N/N=C/c2ccc(-c3ccc(Cl)cc3)o2)cc1",
    "displacement (%)": -4
  },
  {
    "COMPOUND": "COc1ccc(-n2nc3cc(C)c(NC(=O)c4cccnc4)cc3n2)cc1",
    "displacement (%)": 5.1
  },
  {
    "COMPOUND": "COC(=O)C(C)N(C(=O)c1ccc(C(=O)c2ccccc2)cc1)c1c(C)cccc1C (centres undefined)",
    "displacement (%)": 10.7
  },
  {
    "COMPOUND": "COc1cccc(CN2CCN(C(=O)c3ccccc3OC)CC2)c1",
    "displacement (%)": -15.8
  },
  {
    "COMPOUND": "Cc1cc(Cl)ccc1OCC(=O)Nc1sc(C)c(C)c1C(N)=O",
    "displacement (%)": 79.1
  },
  {
    "COMPOUND": "Cc1ccc(OCC(=O)N/N=C\\c2ccc(-c3ccc(Cl)cc3)o2)cc1",
    "displacement (%)": 38.4
  },
  {
    "COMPOUND": "Oc1ccc(Br)cc1C=NCc1ccco1",
    "displacement (%)": 3.3
  },
  {
    "COMPOUND": "Cc1ccc(OCC(=O)N/N=C\\c2ccc(-c3ccc([N+](=O)[O-])cc3)o2)cc1",
    "displacement (%)": 116
  },
  {
    "COMPOUND": "O=C1c2ccccc2C(=O)c2c1cc(Cl)cc2N1CCCCC1",
    "displacement (%)": 2.8
  },
  {
    "COMPOUND": "Cc1ccc(C(=O)NNC(=O)c2ccc3ccccc3c2O)cc1",
    "displacement (%)": 20.5
  },
  {
    "COMPOUND": "COc1cc(/C=C2\\NC(=S)NC2=O)ccc1Oc1ccc([N+](=O)[O-])cn1",
    "displacement (%)": 8.2
  },
  {
    "COMPOUND": "CCCC1=NN2C(=N)/C(=C/c3ccc(-c4ccc([N+](=O)[O-])cc4C)o3)C(=O)N=C2S1",
    "displacement (%)": 140
  },
  {
    "COMPOUND": "CCn1nnnc1-c1ccc(OC)c(S(=O)(=O)Nc2ccc(F)cc2)c1",
    "displacement (%)": 6.1
  },
  {
    "COMPOUND": "COc1cc(/C=C2\\SC(=S)NC2=O)ccc1Oc1ccc([N+](=O)[O-])cn1",
    "displacement (%)": 20.6
  },
  {
    "COMPOUND": "O=C1/C(=C/Nc2ccccc2NS(=O)(=O)c2ccccc2)CCc2ccccc21",
    "displacement (%)": 10.4
  },
  {
    "COMPOUND": "O=C(COc1ccc(I)cc1)N/N=C/c1ccc(-c2ccc([N+](=O)[O-])cc2)o1",
    "displacement (%)": 59
  },
  {
    "COMPOUND": "Cn1c2c(c(=O)n(C)c1=O)C(c1ccc(Br)cc1)C1=C(N2)c2ccccc2C1=O (centres undefined)",
    "displacement (%)": -10.4
  },
  {
    "COMPOUND": "O=C1/C(=C\\Nc2cc(Cl)ccc2O)CCc2ccccc21",
    "displacement (%)": 85.9
  },
  {
    "COMPOUND": "CCC1=NN2C(=N)/C(=C/c3ccc(-c4ccc([N+](=O)[O-])cc4Br)o3)C(=O)N=C2S1",
    "displacement (%)": 4
  },
  {
    "COMPOUND": "CN(C(=O)c1cccs1)c1ccccc1C(=O)O",
    "displacement (%)": -1.3
  },
  {
    "COMPOUND": "NC(=O)c1ccccc1N=Cc1cc(Cl)cc(Cl)c1O",
    "displacement (%)": -7.2
  },
  {
    "COMPOUND": "CC(C)(CNC(=O)c1cccnc1)CNC(=O)c1cccnc1",
    "displacement (%)": 7.9
  },
  {
    "COMPOUND": "O=C1c2ccccc2C(=O)c2c1c(Cl)c(Cl)c(Cl)c2N1CCCC1",
    "displacement (%)": 8
  },
  {
    "COMPOUND": "CNc1ccc([N+](=O)[O-])cc1N/C=C1\\CCc2ccccc2C1=O",
    "displacement (%)": 126
  },
  {
    "COMPOUND": "CCOC(=O)c1c(NC(=O)COc2cc(Cl)ccc2Cl)sc(C)c1C",
    "displacement (%)": -8
  },
  {
    "COMPOUND": "NC(=O)C1CCN(C(=O)c2ccc([N+](=O)[O-])cc2)CC1",
    "displacement (%)": 4.4
  }
]
